testSystem: feline FcRn complex (FcRn-α subunit and β-microglobulin), biotin labeled (feline)
assayProcedure: SPR, pH 6
Decision: Kd beneath 0.009 µM gives Met; Kd meeting or exceeding 0.009 µM gives Not met.

>>> qualitativelabel("feline IgG1a S252F (antibody, part only; not given: Variable domains, not shown: another chain or arm of the molecule) constant: ASTTAPSVFPLAPSCGTTSGATVALACLVLGYFPEPVTVSWNSGALTSGVHTFPAVLQASGLYSLSSMVTVPSSRWLSDTFTCNVAHPPSNTKVDKTVRKTDHPPGPKPCDCPKCPPPEMLGGPSIFIFPPKPKDTLFISRTPEVTCLVVDLGPDDSDVQITWFVDNTQVYTAKTSPREEQFNSTYRVVSVLPILHQDWLKGKEFKCKVNSKSLPSPIERTISKAKGQPHEPQVYVLPPAQEELSRNKVSVTCLIKSFHPPDIAVEWEITGQPEPENNYRTTPPQLDSDGTYFVYSKLSVDRSHWQRGNTYTCSVSHEALHSHHTQKSLTQSPGK")
"Not met"
>>> qualitativelabel("feline IgG1a S252H (antibody, part only; not given: Variable domains, not shown: another chain or arm of the molecule) constant: ASTTAPSVFPLAPSCGTTSGATVALACLVLGYFPEPVTVSWNSGALTSGVHTFPAVLQASGLYSLSSMVTVPSSRWLSDTFTCNVAHPPSNTKVDKTVRKTDHPPGPKPCDCPKCPPPEMLGGPSIFIFPPKPKDTLHISRTPEVTCLVVDLGPDDSDVQITWFVDNTQVYTAKTSPREEQFNSTYRVVSVLPILHQDWLKGKEFKCKVNSKSLPSPIERTISKAKGQPHEPQVYVLPPAQEELSRNKVSVTCLIKSFHPPDIAVEWEITGQPEPENNYRTTPPQLDSDGTYFVYSKLSVDRSHWQRGNTYTCSVSHEALHSHHTQKSLTQSPGK")
"Not met"
>>> qualitativelabel("feline IgG1a A378R (antibody, part only; not given: Variable domains, not shown: another chain or arm of the molecule) constant: ASTTAPSVFPLAPSCGTTSGATVALACLVLGYFPEPVTVSWNSGALTSGVHTFPAVLQASGLYSLSSMVTVPSSRWLSDTFTCNVAHPPSNTKVDKTVRKTDHPPGPKPCDCPKCPPPEMLGGPSIFIFPPKPKDTLSISRTPEVTCLVVDLGPDDSDVQITWFVDNTQVYTAKTSPREEQFNSTYRVVSVLPILHQDWLKGKEFKCKVNSKSLPSPIERTISKAKGQPHEPQVYVLPPAQEELSRNKVSVTCLIKSFHPPDIRVEWEITGQPEPENNYRTTPPQLDSDGTYFVYSKLSVDRSHWQRGNTYTCSVSHEALHSHHTQKSLTQSPGK")
"Not met"
>>> qualitativelabel("feline IgG1a P247L (antibody, part only; not given: Variable domains, not shown: another chain or arm of the molecule) constant: ASTTAPSVFPLAPSCGTTSGATVALACLVLGYFPEPVTVSWNSGALTSGVHTFPAVLQASGLYSLSSMVTVPSSRWLSDTFTCNVAHPPSNTKVDKTVRKTDHPPGPKPCDCPKCPPPEMLGGPSIFIFPPKLKDTLSISRTPEVTCLVVDLGPDDSDVQITWFVDNTQVYTAKTSPREEQFNSTYRVVSVLPILHQDWLKGKEFKCKVNSKSLPSPIERTISKAKGQPHEPQVYVLPPAQEELSRNKVSVTCLIKSFHPPDIAVEWEITGQPEPENNYRTTPPQLDSDGTYFVYSKLSVDRSHWQRGNTYTCSVSHEALHSHHTQKSLTQSPGK")
"Met"
>>> qualitativelabel("feline IgG1a S252H/S428M/S434L (antibody, part only; not given: Variable domains, not shown: another chain or arm of the molecule) constant: ASTTAPSVFPLAPSCGTTSGATVALACLVLGYFPEPVTVSWNSGALTSGVHTFPAVLQASGLYSLSSMVTVPSSRWLSDTFTCNVAHPPSNTKVDKTVRKTDHPPGPKPCDCPKCPPPEMLGGPSIFIFPPKPKDTLHISRTPEVTCLVVDLGPDDSDVQITWFVDNTQVYTAKTSPREEQFNSTYRVVSVLPILHQDWLKGKEFKCKVNSKSLPSPIERTISKAKGQPHEPQVYVLPPAQEELSRNKVSVTCLIKSFHPPDIAVEWEITGQPEPENNYRTTPPQLDSDGTYFVYSKLSVDRSHWQRGNTYTCSVMHEALHLHHTQKSLTQSPGK")
"Met"
>>> qualitativelabel("feline IgG1a T256M (antibody, part only; not given: Variable domains, not shown: another chain or arm of the molecule) constant: ASTTAPSVFPLAPSCGTTSGATVALACLVLGYFPEPVTVSWNSGALTSGVHTFPAVLQASGLYSLSSMVTVPSSRWLSDTFTCNVAHPPSNTKVDKTVRKTDHPPGPKPCDCPKCPPPEMLGGPSIFIFPPKPKDTLSISRMPEVTCLVVDLGPDDSDVQITWFVDNTQVYTAKTSPREEQFNSTYRVVSVLPILHQDWLKGKEFKCKVNSKSLPSPIERTISKAKGQPHEPQVYVLPPAQEELSRNKVSVTCLIKSFHPPDIAVEWEITGQPEPENNYRTTPPQLDSDGTYFVYSKLSVDRSHWQRGNTYTCSVSHEALHSHHTQKSLTQSPGK")
"Not met"
>>> qualitativelabel("feline IgG1a T250I (antibody, part only; not given: Variable domains, not shown: another chain or arm of the molecule) constant: ASTTAPSVFPLAPSCGTTSGATVALACLVLGYFPEPVTVSWNSGALTSGVHTFPAVLQASGLYSLSSMVTVPSSRWLSDTFTCNVAHPPSNTKVDKTVRKTDHPPGPKPCDCPKCPPPEMLGGPSIFIFPPKPKDILSISRTPEVTCLVVDLGPDDSDVQITWFVDNTQVYTAKTSPREEQFNSTYRVVSVLPILHQDWLKGKEFKCKVNSKSLPSPIERTISKAKGQPHEPQVYVLPPAQEELSRNKVSVTCLIKSFHPPDIAVEWEITGQPEPENNYRTTPPQLDSDGTYFVYSKLSVDRSHWQRGNTYTCSVSHEALHSHHTQKSLTQSPGK")
"Met"
